Entries and their measured activity coefficient follow.
assay: activity coefficient (dimensionless); of the first substance listed, at infinite dilution; xn = mol fraction of the nth substance listed; conditions: 333.15 K; Liquid; Chromatography; x1 = 0

Exercise: Could you tell me which activity coefficient is on file for CC1CCCC1 [methylcyclopentane] + CN(C)c1cc[n+](COCCCOC[n+]2ccc(N(C)C)cc2)cc1.O=S(=O)([N-]S(=O)(=O)C(F)(F)F)C(F)(F)F.O=S(=O)([N-]S(=O)(=O)C(F)(F)F)C(F)(F)F ?
Key: 9.51

Exercise: Endpoint output: activity coefficient of C#CCCCCC [1-heptyne] + CCCOC[n+]1ccn(C)c1.N#C[N-]C#N . Value?
Key: 10.9

Exercise: Which activity coefficient value belongs to C#CCCCCC [1-heptyne] + CN(C)c1cc[n+](COCCCOC[n+]2ccc(N(C)C)cc2)cc1.O=S(=O)([N-]S(=O)(=O)C(F)(F)F)C(F)(F)F.O=S(=O)([N-]S(=O)(=O)C(F)(F)F)C(F)(F)F ?
Key: 4.09

Exercise: Please give the measured activity coefficient for this compound: CCC(C)=O [butanone] + CCCCCCCCn1cc[n+](COCCC)c1C.O=S(=O)([N-]S(=O)(=O)C(F)(F)F)C(F)(F)F
Key: 0.33

Exercise: Using the record for CCCCCCCCCCCC [dodecane] + CCCOC[n+]1ccn(C)c1.O=S(=O)([N-]S(=O)(=O)C(F)(F)F)C(F)(F)F , report its activity coefficient.
Key: 118

Exercise: Look at this compound and give its reported activity coefficient. CCCCCCCCC [nonane] + CCCOC[n+]1ccn(C)c1.N#C[N-]C#N
Key: 234
